Percent of Binding to Mutant Human CD20 for assorted binders
assayed.system: T1, mutant human CD20 #4 (N166D) (human, UniProt P11836 1-297)
T1 construct: Stably expressed on MG87 cells
T1 sequence: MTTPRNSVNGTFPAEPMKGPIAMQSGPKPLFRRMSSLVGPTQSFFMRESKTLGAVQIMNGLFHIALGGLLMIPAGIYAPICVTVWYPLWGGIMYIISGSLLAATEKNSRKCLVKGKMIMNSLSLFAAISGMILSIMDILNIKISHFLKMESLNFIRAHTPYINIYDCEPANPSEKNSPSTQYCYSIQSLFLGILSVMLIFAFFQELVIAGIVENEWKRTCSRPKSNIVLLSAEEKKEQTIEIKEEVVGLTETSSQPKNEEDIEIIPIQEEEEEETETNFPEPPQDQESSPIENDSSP
test.description: FACS, mutant-hCD20 MG87 cells; 100%=best antibody

binder	unit.of.measurement	Percent of Binding to Mutant Human CD20
2C11-4 (antibody, V domains shown, Fully human IgG, constant region not specified; also called 2C11-4N) VH: EVQLVESGGGLVQPGRSLRLSCAASGFTFRDYAMHWVRQGPGKGLEWVSGISWNTDYIGYADSVKGRFTISRDNAKNSLYLQMNSLRPEDTALYYCAKDARYGRDNYYGMDVWGQGTTVTVSS VL: EIVLTQSPATLSLSPGERATLSCRASQSVSRYLAWYQQKPGQAPRLLIHDASNRATGIPARFSGSGSGTDFTLTITSLEPEDFVVYYCQQRSDWPITFGQGTRLEIK	%	31
2F2 (antibody, V domains shown) VH: EVQLVESGGGLVQPGRSLRLSCAASGFTFNDYAMHWVRQAPGKGLEWVSTISWNSGSIGYADSVKGRFTISRDNAKKSLYLQMNSLRAEDTALYYCAKDIQYGNYYYGMDVWGQGTTVTVSS VL: EIVLTQSPATLSLSPGERATLSCRASQSVSSYLAWYQQKPGQAPRLLIYDASNRATGIPARFSGSGSGTDFTLTISSLEPEDFAVYYCQQRSNWPITFGQGTRLEIK	%	51
9H4-12 (antibody, V domains shown, Fully human IgG, constant region not specified; also called 9H4-12N) VH: EVQLVESGGGLVQPGRSLRLSCAASGFTFDDYAMHWVRQVPGKGLEWVSGISWNSGSIGYADSVKGRFTISRDNAKNSLYLQMNSLRAEDTALYYCAKDMGYGNYYHYGMDVWGQGTTVTVSS VL: DIVLTQSPATLSLSPGERATLSCRASQSVSSYLAWYQQKPGQAPRLLICDASHRATRIPARFSGSGSGTDFTLTISSLEPEDFAVYYCQQRSNWPITFGQGTRLEIK	%	0

Entry source: patent US20090035322A1
